measurement_description: qHTS for inhibitors of Vif-A3G interactions: Cherry picks; further: nearly all actives have a fitted effect of over 80% in size
condition_notes: HeLa A3G-eYFP + Vif, 24 h; eYFP fluorescence increase; series mostly up to 36.9 µM
Hit rate of the full screen: of about 2,100 compounds, about 650 (31%) were called active. Roughly 16% stayed inconclusive and do not appear here. The call rests on the fitted dose curve; in most records, active means well fitted inhibition curve with a large enough effect; inconclusive means small, poorly fitted or top-dose-only effect; inactive means flat fitted curve, though single readings scatter. Some of the results follow.
Would you mind answering with one of these outcomes? true for active, false for inactive

Consider the worked cases shown below.
Task item: // return assay outcome for COc1cc(C2C3=C(COC3=O)Oc3cc4c(cc32)OCO4)ccc1OC(C)=O (configuration not stated)
Reply: false

Task item: // return assay outcome for `O=C(/C(=C/c1ccc(Cl)cc1)c1nc2ccccc2[nH]1)c1cccs1`
Reply: false

Task item: // return assay outcome for `CC(/C=N/NC(=O)c1cc(-c2ccc(C)s2)[nH]n1)=C\c1ccccc1`
Reply: false

Further cases:
Task item: // return assay outcome for `O=C(N/N=C/c1ccc([N+](=O)[O-])o1)c1cn2ccc3ccccc3c2n1`
Reply: false

Task item: // return assay outcome for `COc1ccc(NC(=O)c2sc3nc(-c4ccc(OC)cc4)cc(C(F)(F)F)c3c2N)cc1`
Reply: true

Task item: // return assay outcome for `COc1cc(/C=C2\SC(=Nc3ccccc3)NC2=O)cc(Cl)c1O`
Reply: true

Task item: // return assay outcome for `COc1ccc(NC(=O)c2cc(-c3ccccc3OC)on2)cc1`
Reply: false

Task item: // return assay outcome for `COc1ccc(OC)c(Nc2nc(-c3ccncc3)nc3ccccc23)c1`
Reply: false

Task item: // return assay outcome for `CCOC(=O)c1c(C)nc2sc(C(=O)Nc3ccc(OC)cc3)c(N)c2c1-c1ccc(OC)cc1`
Reply: false

Task item: // return assay outcome for `CCOC(=O)c1cnc(-n2nc(C)cc2C)nc1NNc1cc(C)nc(-c2ccccc2)n1`
Reply: false

Task item: // return assay outcome for `CN(C)c1ccc(/C=C2\C(=N)N3N=C(CC(=O)N4CCCCC4)SC3=NC2=O)cc1`
Reply: true

Task item: // return assay outcome for `COc1cccc(NC(=O)Nc2nc(-c3ccc(OC)c(OC)c3)cs2)c1`
Reply: false

Task item: // return assay outcome for `CCN(CC(=O)NCc1ccc(F)cc1)C(=O)/C=C/c1ccc(OC)c(S(=O)(=O)NC(C)C)c1`
Reply: false

Task item: // return assay outcome for `CCOC(=O)c1ccc(/C=C2/C=C(c3ccccc3)N(c3ccc(Cl)c(C(=O)O)c3)C2=O)cc1`
Reply: true

Task item: // return assay outcome for `COc1cc(/C=C2\SC(=Nc3cccnc3)NC2=O)cc(OC)c1OC`
Reply: false

Task item: // return assay outcome for `Nc1nc(SCc2ccc(Cl)cc2Cl)nc2nc3c(cc12)CCCC3`
Reply: true

Task item: // return assay outcome for `Cc1ccc(-c2nc(C=Nc3ccc(O)cc3)c(O)o2)cc1`
Reply: false

Task item: // return assay outcome for `CN(C)c1ccc(/C=C2\SC(N3CCCCC3)=NC2=O)cc1`
Reply: true

Task item: // return assay outcome for `CCc1ccc2nc(N(CCCN(C)C)C(=O)c3ccc(S(=O)(=O)N(C)C4CCCCC4)cc3)sc2c1`
Reply: false

----------
measurement_description: qHTS for inhibitors of Vif-A3G interactions: Cherry picks; further: nearly all actives have a fitted effect of over 80% in size
condition_notes: HeLa A3G-eYFP + Vif, 24 h; eYFP fluorescence increase; series mostly up to 36.9 µM
Out of some 2,100 compounds screened, about 650 (31%) were called active. Roughly 16% stayed inconclusive and do not appear here. Calls follow the shape of the dose curve; as a rule, active = well fitted inhibition curve with a large enough effect; inconclusive = small, poorly fitted or top-dose-only effect; inactive = flat fitted curve, though single readings scatter. Some of the results follow.
Would you mind answering with one of these outcomes? Y for active, N for inactive

Consider the worked cases shown below.
Task item: // return assay outcome for `CCN1C(=S)SC(=O)C1=C1C=C(C)N(Cc2ccco2)C(C)=C1`
Reply: Y

Task item: // return assay outcome for `CCOc1c(Cl)cc(/C=N/NC(N)=S)cc1OC`
Reply: N

Task item: // return assay outcome for `CCSc1nnc(-c2sc3nnc(-c4ccccc4)c(-c4ccccc4)c3c2N)o1`
Reply: Y

Task item: // return assay outcome for C=CCN1C(=O)C2(NNc3ccccc3O2)c2ccccc21 (stereo not drawn)
Reply: Y

Task item: // return assay outcome for `CCN(CC)c1ccc2cc(C(N)=O)c(=N)oc2c1`
Reply: Y

Task item: // return assay outcome for `CCOCCCNC(=O)/C(C#N)=C/c1ccc([N+](=O)[O-])o1`
Reply: Y

Further cases:
Task item: // return assay outcome for CC(=O)Nc1cccc(-c2ccnc3c2CC(C(=O)Nc2ccc(Cl)cc2)O3)c1 (stereo not drawn)
Reply: N

Task item: // return assay outcome for N#CC1=C2SCC(O)(c3ccccc3)N2C(=O)CC1c1ccccc1 (stereo not drawn)
Reply: N

----------
measurement_description: qHTS for inhibitors of Vif-A3G interactions: Cherry picks; further: nearly all actives have a fitted effect of over 80% in size
condition_notes: HeLa A3G-eYFP + Vif, 24 h; eYFP fluorescence increase; series mostly up to 36.9 µM
Description: The recent discovery and characterization of host restriction factors, which provide a potent defense to invading retroviruses, has provided new targets for antiviral drug development. […] In the presence of an inhibitor, it is expected that Vif will be unable to degrade A3G-eYFP and/or A3F-eYFP, resulting in an increase in yellow fluorescence. […]
In all, about 2,100 compounds went through this assay and about 650 (31%) were called active. Roughly 16% stayed inconclusive and do not appear here. The call rests on the fitted dose curve; in most records, active means well fitted inhibition curve with a large enough effect; inconclusive means small, poorly fitted or top-dose-only effect; inactive means flat fitted curve, though single readings scatter. This is one part of the list.
Would you mind answering with one of these outcomes? 1 (yes) for active, 0 (no) for inactive

Consider the worked cases shown below.
Task item: // return assay outcome for CC[N+](C)(C(=O)O)/C(=C\c1ccccc1)c1ccnc2ccccc12 (configuration not stated)
Reply: 1 (yes)

Task item: // return assay outcome for `COc1cc(S(=O)(=O)Nc2ccccc2N2CCCCC2)ccc1NC(C)=O`
Reply: 0 (no)

Task item: // return assay outcome for `O=C(O)Cc1sc(NC2CCCCC2)nc1-c1ccc(Cl)cc1`
Reply: 0 (no)

Task item: // return assay outcome for `NC(=O)c1c(Nc2nc3c(F)cccc3s2)sc2c1CCCC2`
Reply: 0 (no)

Task item: // return assay outcome for `Cn1ccnc1Sc1nc2ccccc2nc1NS(=O)(=O)c1ccccc1`
Reply: 0 (no)

Further cases:
Task item: // return assay outcome for COc1ccc(OC)c(C2C=C(c3ccc(C)c(C)c3)Nc3nnnn32)c1 (configuration not stated)
Reply: 0 (no)

Task item: // return assay outcome for `CN1C/C(=C/c2cccnc2)C(=O)/C(=C/c2cccnc2)C1`
Reply: 0 (no)

Task item: // return assay outcome for `Cc1ccc(S(=O)(=O)N2CCCCC2)cc1NC(=O)Cn1ncc(Cl)c(Cl)c1=O`
Reply: 0 (no)

Task item: // return assay outcome for `CCc1ccc(/C=N/NC(=O)c2cc(-c3ccncc3)nc3ccccc23)s1`
Reply: 0 (no)

Task item: // return assay outcome for `CN1CCC(OC(=O)c2cc3cc(Cl)cc(Cl)c3oc2=O)CC1`
Reply: 0 (no)

Task item: // return assay outcome for `O=C1/C(=C/c2c[nH]c3ccccc23)CCC/C1=C\c1c[nH]c2ccccc12`
Reply: 1 (yes)

----------
measurement_description: qHTS for inhibitors of Vif-A3G interactions: Cherry picks; further: nearly all actives have a fitted effect of over 80% in size
condition_notes: HeLa A3G-eYFP + Vif, 24 h; eYFP fluorescence increase; series mostly up to 36.9 µM
Text: The recent discovery and characterization of host restriction factors, which provide a potent defense to invading retroviruses, has provided new targets for antiviral drug development. […] In the presence of an inhibitor, it is expected that Vif will be unable to degrade A3G-eYFP and/or A3F-eYFP, resulting in an increase in yellow fluorescence. […]
About 650 (31%) of roughly 2,100 compounds were called active. Inconclusive results (about 16%) are left out. Calls come from the whole dose curve; as a rule, active = well fitted inhibition curve with a large enough effect; inconclusive = small, poorly fitted or top-dose-only effect; inactive = flat fitted curve, though single readings scatter. This is one part of the list.
Would you mind answering with one of these outcomes? active, inactive

Task item: // return assay outcome for `CCn1nc(-c2ccccc2)c2nc3ccccc3nc21`
Reply: active

Further cases:
Task item: // return assay outcome for `CCOC(=O)c1cccc(NC(=O)N2CC=C(c3c[nH]c4ccccc34)CC2)c1`
Reply: inactive

Task item: // return assay outcome for `O=C(Cn1ncc(Cl)c(Cl)c1=O)Nc1ccc2c(c1)OCO2`
Reply: inactive

Task item: // return assay outcome for `Nc1ccc2nc(-c3ccccc3)c(-c3ccccc3)nc2c1`
Reply: inactive

Task item: // return assay outcome for O=C1CC(c2cc(F)ccc2F)c2cc3c(cc2N1)CCC3 (stereo unspecified)
Reply: inactive

Task item: // return assay outcome for COc1ccc(CN2C(=O)C(C)Nc3ncnc(N4CCc5ccccc5C4)c32)cc1 (stereo unspecified)
Reply: inactive

----------
measurement_description: qHTS for inhibitors of Vif-A3G interactions: Cherry picks; further: nearly all actives have a fitted effect of over 80% in size
condition_notes: HeLa A3G-eYFP + Vif (tagged APOBEC3G with the HIV-1 protein that degrades it), 24 h; eYFP fluorescence increase; series mostly up to 36.9 µM
Among all 2,100 compounds or so, about 650 (31%) were called active. Another 16% or so got no clear call; they are omitted. Calls come from the whole dose curve; as a rule, active = well fitted inhibition curve with a large enough effect; inconclusive = small, poorly fitted or top-dose-only effect; inactive = flat fitted curve, though single readings scatter. This is one part of the list.
Would you mind answering with one of these outcomes? yes (1) for active, no (0) for inactive

Task item: // return assay outcome for `CN1CCN(c2nc3ccccc3nc2NS(=O)(=O)c2ccc(Br)cc2)CC1`
Reply: no (0)

Further cases:
Task item: // return assay outcome for `Cc1ccc(S(=O)(=O)CCSc2nc(C)cc(C(F)(F)F)c2C#N)cc1`
Reply: yes (1)

Task item: // return assay outcome for `O=S(=O)(Nc1nc2ccccc2nc1N1CCc2ccccc2C1)c1ccc(Br)cc1`
Reply: no (0)

Task item: // return assay outcome for `CCOC(=O)N1CCC(Nc2nc3ccccc3nc2NS(=O)(=O)c2ccc(Cl)cc2)CC1`
Reply: no (0)

Task item: // return assay outcome for Cc1cnc(NC(=O)CC(C)c2ccccc2)s1 (stereo not given)
Reply: no (0)

Task item: // return assay outcome for `CCOC(=O)c1ccc(NC(=O)Cn2ncc(Cl)c(Cl)c2=O)cc1`
Reply: no (0)

Task item: // return assay outcome for `CCOC(=O)c1ccc(N=Nc2c(C)c(C#N)c(O)[nH]c2=O)cc1`
Reply: no (0)

Task item: // return assay outcome for `CCOC(=O)c1ccc(NC(=O)CSc2nc(-c3ccc(F)cc3)cc(C(F)(F)F)c2C#N)cc1`
Reply: yes (1)

Task item: // return assay outcome for `CCOc1ccc(-n2nnnc2SCC(=O)c2ccccc2)cc1`
Reply: no (0)

Task item: // return assay outcome for `CCOc1ccc(-c2cc(C(=O)N/N=C(\C)c3cccnc3)c3ccccc3n2)cc1`
Reply: no (0)
